biological target: cAMP-dependent protein kinase catalytic subunit alpha (Homo sapiens); assay: PKA catalytic subunit inhibitors, dose response, biochemical, Caliper mobility shift, dry powder samples, set 2 (AID 588629); conditions: Recombinant PKA, peptide phosphorylation
pIC50: −log10 of the molar value. Results filed as inconclusive are left out.
Measured Attribute: pIC50

Request: Report pIC50 for O=C(Nc1ccccc1-c1nc2ccccc2[nH]c1=O)c1cc2ccccc2s1
Result: 5.17

a: O=C(Nc1ccccc1-c1nc2cc(Cl)c(Cl)cc2[nH]c1=O)c1cccs1
b: COc1cc(/C=C2\SC(=NCc3ccccc3)NC2=O)ccc1O
Request: Please compare: a and b . Report which one has the smaller pIC50 value. I would appreciate it if you answered with the label of your choice.
Result: a

###

target: cAMP-dependent protein kinase catalytic subunit alpha (Homo sapiens) (UniProt P17612); test: PKA catalytic subunit inhibitors, dose response, biochemical, Caliper mobility shift, dry powder samples, set 2 (AID 588629); conditions: Recombinant PKA, peptide phosphorylation, at 10 µM (top of the series)
Inconclusive results are not listed. Activity calls are given as the source filed them.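 The calls were made as follows: active = every test run called active, with signal falling and half-effect dose at or below the top valid dose; inconclusive = test runs give conflicting calls; inactive = all test runs inactive.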
Measured Attribute: % substrate conversion (lower = inhibition)

Consider the worked cases shown below.
Request: Specify % substrate conversion (lower = inhibition) for O=C(Nc1ccccc1-c1nc2ccccc2[nH]c1=O)c1ccc(F)cc1 and stop.
Result: inactive

Request: Identify measured % substrate conversion (lower = inhibition) associated with O=C1NC(=NCc2ccccc2)S/C1=C/c1ccc(O)cc1
Result: inactive

Request: Report % substrate conversion (lower = inhibition), nothing else, for this compound: COc1ccccc1N=C1NC(=O)/C(=C/c2ccc(OC)c(OC)c2)S1
Result: inactive

Request: Determine its reported % substrate conversion (lower = inhibition): COc1ccccc1N=C1NC(=O)/C(=C/c2ccccn2)S1
Result: inactive

Request: Given the compound COc1ccccc1N=C1NC(=O)/C(=C/c2cc(Cl)cc(Cl)c2O)S1 , write its reported % substrate conversion (lower = inhibition).
Result: inactive

Request: Please supply the value of reported % substrate conversion (lower = inhibition) for the item COc1ccccc1N=C1NC(=O)/C(=C/c2ccc(C#N)cc2)S1
Result: inactive

Request: Give the reported % substrate conversion (lower = inhibition) for this compound. COc1cc(/C=C2\SC(=Nc3ccccc3OC)NC2=O)ccc1O
Result: inactive

Request: Consider the compound Nc1ccccc1-c1nc2ccccc2[nH]c1=O . State its measured % substrate conversion (lower = inhibition).
Result: inactive

Request: Specify measured % substrate conversion (lower = inhibition) for O=C(Nc1ccccc1-c1nc2ccccc2[nH]c1=O)c1ccccn1 .
Result: inactive

Request: State its % substrate conversion (lower = inhibition) for this compound: COc1ccccc1N=C1NC(=O)/C(=C/c2ccc(F)c(F)c2)S1
Result: inactive

New cases:
Request: Give recorded % substrate conversion (lower = inhibition). COc1cc(/C=C2\SC(=NC(C)(C)C)NC2=O)ccc1O
Result: inactive

###

target: cAMP-dependent protein kinase catalytic subunit alpha (Homo sapiens) (UniProt P17612); test: PKA catalytic subunit inhibitors, dose response, biochemical, Caliper mobility shift, dry powder samples, set 2 (AID 588629); settings: Recombinant PKA, peptide phosphorylation, at 10 µM (top of the series)
Records with an inconclusive call do not appear. Activity calls are given as the source filed them.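 How the source made its calls: active means every test run called active, with signal falling and half-effect dose at or below the top valid dose; inconclusive means test runs give conflicting calls; inactive means all test runs inactive.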
Measured Attribute: % substrate conversion (lower = inhibition)

Please review the entries below; each comes with its answer.
Request: Give % substrate conversion (lower = inhibition) for O=C(Nc1ccccc1-c1nc2ccccc2[nH]c1=O)c1cccs1
Result: inactive

Request: Give % substrate conversion (lower = inhibition) for the following compound: COc1ccccc1N=C1NC(=O)/C(=C/c2cccc(F)c2)S1
Result: inactive

Request: Supply reported % substrate conversion (lower = inhibition) belonging to this compound: COc1ccccc1N=C1NC(=O)/C(=C/c2cc(C)on2)S1
Result: inactive

Request: Kindly indicate its recorded % substrate conversion (lower = inhibition). Item: O=C(Nc1ccc(Cl)cc1-c1nc2ccccc2[nH]c1=O)c1cccs1
Result: inactive

Request: Output % substrate conversion (lower = inhibition) of COc1ccccc1N=C1NC(=O)/C(=C/c2cnn(C)c2)S1
Result: inactive

***
Request: Indicate its recorded % substrate conversion (lower = inhibition); the compound in question is O=C(Nc1ccccc1-c1nc2ccccc2[nH]c1=O)c1cccnc1
Result: inactive

Request: Input O=C(Nc1ccc(OC(F)(F)F)cc1-c1nc2ccccc2[nH]c1=O)c1cccs1 , output reported % substrate conversion (lower = inhibition).
Result: inactive
